MEASUREMENT_TARGET: fMet-Leu-Phe receptor (Homo sapiens, UniProt P21462)
Sequence (P21462 whole entry): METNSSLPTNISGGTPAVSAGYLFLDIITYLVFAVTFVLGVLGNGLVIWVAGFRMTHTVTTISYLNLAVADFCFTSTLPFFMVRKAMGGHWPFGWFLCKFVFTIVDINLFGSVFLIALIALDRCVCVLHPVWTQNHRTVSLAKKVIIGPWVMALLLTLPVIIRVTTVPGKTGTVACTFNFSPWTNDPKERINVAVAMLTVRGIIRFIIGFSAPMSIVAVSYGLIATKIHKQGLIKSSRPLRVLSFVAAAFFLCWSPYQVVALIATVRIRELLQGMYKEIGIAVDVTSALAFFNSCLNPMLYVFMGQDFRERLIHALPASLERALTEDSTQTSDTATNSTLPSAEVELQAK
ASSAY_COMMENT: Inhibitory activity against human formylpeptide receptor (FPR) of human leukemia HL-60 cells
Assay type: cell-based
MEASUREMENT_TYPE: IC50 (µM)
Quick reminder: number only, in µM, skip the unit.

| MOLECULAR_STRING | MEASUREMENT_TARGET | UNITS_TEXT | IC50 |
| --- | --- | --- | --- |
| CC/C=C/C[C@@H](C)[C@@H](O)[C@H]1C(=O)N[C@@H](CC)C(=O)N(C)CC(=O)N(C)[C@@H](CC(C)C)C(=O)N[C@@H](C(C)C)C(=O)N(C)[C@@H](CC(C)C)C(=O)N[C@@H](C)C(=O)N[C@H](CCCCN)C(=O)N(C)[C@@H](CC(C)C)C(=O)N(C)[C@@H](CC(C)C)C(=O)N(C)[C@@H](C(C)C)C(=O)N1C | fMet-Leu-Phe receptor (Homo sapiens, UniProt P21462) | µM | 6.3 |

State its IC50 for this compound: `C/C=C/C[C@@H](C)[C@@H](O)[C@H]1C(=O)N[C@@H](CC)C(=O)N(C)CC(=O)N(C)[C@@H](CC(C)C)C(=O)N[C@@H](C(C)C)C(=O)N(C)[C@@H](CC(C)C)C(=O)N[C@@H](C)C(=O)N[C@H](C)C(=O)N[C@@H](CC(C)C)C(=O)N(C)[C@@H](CC(C)C)C(=O)N(C)[C@@H](C(C)C)C(=O)N1C`
3

State its IC50 for this compound: `CC/C=C/C[C@@H](C)[C@@H](O)[C@H]1C(=O)N[C@@H](CC)C(=O)N(C)CC(=O)N(C)[C@@H]([C@@H](C)CC)C(=O)N[C@@H](C(C)C)C(=O)N(C)[C@@H](CC(C)C)C(=O)N[C@@H](C)C(=O)N[C@H](C)C(=O)N(C)[C@@H](CC(C)C)C(=O)N(C)[C@@H](CC(C)C)C(=O)N(C)[C@@H](C(C)C)C(=O)N1C`
7

State its IC50 for this compound: `CC[C@@H]1NC(=O)[C@H](CC2CCCCC2)N(C)C(=O)[C@H](C(C)C)N(C)C(=O)[C@H](CC(C)C)N(C)C(=O)[C@H](CC(C)C)N(C)C(=O)[C@@H](C)NC(=O)[C@H](C)NC(=O)[C@H](CC(C)C)N(C)C(=O)[C@H](C(C)C)NC(=O)[C@H](CC(C)C)N(C)C(=O)CN(C)C1=O`
6.33

State its IC50 for this compound: `CC(C)C[C@@H]1NC(=O)[C@H](CC(C)C)N(C)C(=O)[C@@](O)(C(C)C)NC(=O)[C@H](C)NC(=O)[C@H](CC(C)C)N(C)C(=O)[C@H](CC(C)C)NC(=O)[C@H](CC(C)C)N(C)C(=O)CN(C)C(=O)[C@H]([C@@H](C)O)NC(=O)[C@H]([C@H](O)[C@H](C)C/C=C/CO)N(C)C(=O)[C@H](C(C)C)N(C)C1=O`
1.48

State its IC50 for this compound: `C/C=C/C[C@@H](C)[C@@H](O)[C@H]1C(=O)N[C@@H](CC)C(=O)N(C)CC(=O)N(C)[C@@H](CC(C)C)C(=O)N[C@@H](C(C)C)C(=O)N(C)[C@@H](CC(C)C)C(=O)N[C@@H](C)C(=O)N[C@H](C)C(=O)N(C)[C@@H](CC(C)C)C(=O)N[C@@H](CC(C)C)C(=O)N(C)[C@@H](C(C)C)C(=O)N1C`
9.2
